System: 5′-AACCAAGTCTTGGTA-3′
Assay: Association constants, recognition of 15 base pairs
Conditions: Table 5; match vs 5′-AACCAAGTCTTGCGA-3′
measured.parameter: Specificity Edge mismatch
Please give the numeric answer without any surrounding text.

So what's the measured Specificity Edge mismatch for this one? `CN(C)CCCNC(=O)CCNC(=O)c1cc(NC(=O)c2cc(NC(=O)c3cc(NC(=O)CCCNC(=O)c4cc(NC(=O)c5nc(NC(=O)c6nc(NC(=O)CCCCCCCNC(=O)c7cc(NC(=O)c8cc(NC(=O)c9nccn9C)cn8C)cn7C)cn6C)cn5C)cn4C)cn3C)cn2C)cn1C`
10

Next up: `CN(C)CCCNC(=O)CCNC(=O)c1cc(NC(=O)c2cc(NC(=O)c3cc(NC(=O)CCCNC(=O)c4cc(NC(=O)c5nc(NC(=O)c6nc(NC(=O)CCCCNC(=O)CCNC(=O)c7cc(NC(=O)c8cc(NC(=O)c9nccn9C)cn8C)cn7C)cn6C)cn5C)cn4C)cn3C)cn2C)cn1C`
2

Next up: `CN(C)CCCNC(=O)CCNC(=O)c1cc(NC(=O)c2cc(NC(=O)c3cc(NC(=O)CCCNC(=O)c4cc(NC(=O)c5nc(NC(=O)c6nc(NC(=O)CCCCNC(=O)c7cc(NC(=O)c8cc(NC(=O)c9nccn9C)cn8C)cn7C)cn6C)cn5C)cn4C)cn3C)cn2C)cn1C`
19

Next up: `CN(C)CCCNC(=O)CCNC(=O)c1cc(NC(=O)c2cc(NC(=O)c3cc(NC(=O)CCCNC(=O)c4cc(NC(=O)c5nc(NC(=O)c6nc(NC(=O)CCCNC(=O)c7cc(NC(=O)c8cc(NC(=O)c9nccn9C)cn8C)cn7C)cn6C)cn5C)cn4C)cn3C)cn2C)cn1C`
1

Next up: `CN(C)CCCNC(=O)CCNC(=O)c1cc(NC(=O)c2cc(NC(=O)c3cc(NC(=O)CCCNC(=O)c4cc(NC(=O)c5nc(NC(=O)c6nc(NC(=O)CCCCCNC(=O)c7cc(NC(=O)c8cc(NC(=O)c9nccn9C)cn8C)cn7C)cn6C)cn5C)cn4C)cn3C)cn2C)cn1C`
15

Next up: `CN(C)CCCNC(=O)CCNC(=O)c1cc(NC(=O)c2cc(NC(=O)c3cc(NC(=O)CCCNC(=O)c4cc(NC(=O)c5nc(NC(=O)c6nc(NC(=O)CCCCCCNC(=O)c7cc(NC(=O)c8cc(NC(=O)c9nccn9C)cn8C)cn7C)cn6C)cn5C)cn4C)cn3C)cn2C)cn1C`
2

Next up: `CN(C)CCCNC(=O)CCNC(=O)c1cc(NC(=O)c2cc(NC(=O)c3cc(NC(=O)CCCNC(=O)c4cc(NC(=O)c5nc(NC(=O)c6nc(NC(=O)CCNC(=O)CCNC(=O)c7cc(NC(=O)c8cc(NC(=O)c9nccn9C)cn8C)cn7C)cn6C)cn5C)cn4C)cn3C)cn2C)cn1C`
2

Data credit: patent US6555692B1
